# assay-remarks: P-glycoprotein substrates identified in KB-8-5-11 adenocarcinoma cell line, qHTS therapeutic library screen (AID 1346987); note: nearly all actives have a fitted effect of over 65% in size
# run-conditions: KB-8-5-11 (P-gp overexpressing) viability, CellTiter-Glo, 72 h; series mostly up to 44.5 µM
Results filed as inconclusive are left out. The source made the active and inactive calls. Calls come from the whole dose curve; as a rule, active = well fitted inhibition curve with a large enough effect; inconclusive = small, poorly fitted or top-dose-only effect; inactive = flat fitted curve, though single readings scatter.
Hello, when you answer, please use one of the following outcomes: TRUE (active), FALSE (inactive)

| molecule | class |
| --- | --- |
| CC(C)NCC(O)COc1cccc2[nH]ccc12 (centres undefined) | FALSE |
| Cc1ccc(Nc2cc(-c3cccc(N4C(=O)c5ccccc5C4=O)c3)ncn2)cc1NS(C)(=O)=O | FALSE |
| CC1(C)O[C@H]2C[C@@H]3[C@H]4CCC5=CC(=O)C=C[C@]5(C)[C@@]4(F)[C@@H](O)C[C@]3(C)[C@]2(C(=O)CO)O1 | FALSE |

Ask: For O=c1cc(-c2cccc3c2Sc2ccccc2S3)oc(N2CCOCC2)c1 , which call appears in the assay record?
Reply: FALSE

Ask: In this assay, the call recorded for O=C(Nc1cc(Cl)cc2c1[nH]c1cnccc12)c1cccnc1 was what?
Reply: FALSE

Ask: Status in this test for NC(CO)(CO)CCc1ccc(Sc2cccc(OCc3ccccc3)c2)cc1Cl ?
Reply: TRUE

Ask: How did this test come out for O=c1cc(CN2CCOCC2)occ1OCCCCCSc1ccnc2cc(C(F)(F)F)ccc12 ?
Reply: TRUE

Ask: Outcome? CCn1c(C(=O)N(C2CC2)C2CC2)cc2c3c(ncn3C)c(Nc3cc(C)n(C)n3)nc21
Reply: FALSE

Ask: Lab log entry: N[C@H](CSC(c1ccccc1)(c1ccccc1)c1ccccc1)C(=O)O — outcome as called in the assay?
Reply: FALSE

Ask: Short answer needed: outcome of this test for CC[C@@H]1C=C(C)C[C@H](C)C[C@H](OC)[C@H]2O[C@@](O)(C(=O)C(=O)N3CCCC[C@@H]3C(=O)O[C@H](C(C)=C[C@@H]3CC[C@H](Cl)[C@H](OC)C3)[C@H](C)[C@@H](O)CC1=O)[C@H](C)C[C@H]2OC ?
Reply: FALSE

Ask: Would you mind telling me which call this test gave CC1CCC(C(=O)N(c2cc(C#CC(C)(C)C)sc2C(=O)O)C2CCC(O)CC2)CC1 (centres undefined) ?
Reply: FALSE

Ask: Can you look up the reported call for CCCNC(=O)NS(=O)(=O)c1ccc(Cl)cc1 for me?
Reply: FALSE

Ask: Returns: the outcome recorded for Cc1ccc(F)c(NC(=O)Nc2ccc(-c3cccc4[nH]nc(N)c34)cc2)c1 in this assay.
Reply: TRUE

Ask: Could you check what this test reported for CCc1ccc(OCc2ccccc2C(=O)Nc2ccc3nc(C)cc(N)c3c2)cc1 ?
Reply: TRUE

Ask: // outcome(item) with item = COc1ccc(-c2coc3cc(O)ccc3c2=O)cc1
Reply: FALSE

Ask: // param item: Cn1c(N2CCCCS2(=O)=O)nc(C(=O)NCc2ccc(F)cc2)c(O)c1=O ; yields the recorded call
Reply: FALSE

Ask: Short answer needed: outcome of this test for COc1cc(O)c2c(c1)C(=O)c1cc(C)cc(O)c1C2=O ?
Reply: FALSE

* * *

# System: Zika virus NS2B-NS3 protease (unlinked complex)
# assay-remarks: Primary screen GU Rhodamine qHTS for Zika virus inhibitors: Unlinked NS2B-NS3 protease assay (AID 1347159); note: nearly all actives have a fitted effect of over 60% in size
# run-conditions: Recombinant ZIKV NS2B-NS3 protease, Rhodamine110 substrate fluorescence; series mostly up to 107 µM
Records with an inconclusive call do not appear. Calls of active or inactive are those of the source. Calls follow the shape of the dose curve; as a rule, active = well fitted inhibition curve with a large enough effect; inconclusive = small, poorly fitted or top-dose-only effect; inactive = no such curve, though single readings can be large or run the other way.
// classify into active, inactive

| molecule | class |
| --- | --- |
| O=C(CCN1CCN(C(=O)OCc2cc(Cl)cc(Cl)c2)CC1)c1ccc2[nH]c(=O)oc2c1 | active |
| CS(=O)(=O)N(Cc1ccco1)CC(O)Cn1c2ccccc2c2ccccc21 (centres undefined) | inactive |
| COc1cc2ncnc(-n3nc(-c4ccccn4)nc3N)c2cc1OC | inactive |
| CN(C)C1CCN(C(=O)c2ccc(NC(=O)Nc3nc(N4CCOCC4)nc(N4CCOCC4)n3)cc2)CC1 | inactive |
| CC(C)(C)c1cc(C(=O)O)c(NC(=O)Nc2ccc3[nH]ncc3c2)s1 | active |
| NC(=O)c1ccc2nc(-c3ccc(Oc4ccc(Cl)cc4)cc3)[nH]c2c1 | inactive |
| CC(C)C(=O)Nc1ncc(-c2cc(C(F)F)nn2-c2c(Cl)cccc2Cl)s1 | inactive |
| CNC(=O)c1ccc2cc(C3(O)CCn4cncc43)ccc2c1 (centres undefined) | inactive |
| COc1cc(N2CCC(N3CCN(C)CC3)CC2)ccc1Nc1ncc(Cl)c(Nc2ccccc2S(=O)(=O)C(C)C)n1 | inactive |
| COc1ccc2cc(-c3nc(-c4ccc(S(C)=O)cc4)[nH]c3-c3ccncc3)ccc2c1 (centres undefined) | inactive |

Would you kindly look at the next entry?
Ask: Could you please tell me the result logged for Cc1cccc(Nc2nc(-c3ccncc3)cs2)c1 in this assay?
Reply: inactive

These measurements were taken from PubChem BioAssay (NCATS).
